target: LsrK (Salmonella typhimurium, UniProt Q8ZKQ6); assay: biochemical; assay type: biochemical, S. typhimurium
Sequence (Q8ZKQ6 whole entry): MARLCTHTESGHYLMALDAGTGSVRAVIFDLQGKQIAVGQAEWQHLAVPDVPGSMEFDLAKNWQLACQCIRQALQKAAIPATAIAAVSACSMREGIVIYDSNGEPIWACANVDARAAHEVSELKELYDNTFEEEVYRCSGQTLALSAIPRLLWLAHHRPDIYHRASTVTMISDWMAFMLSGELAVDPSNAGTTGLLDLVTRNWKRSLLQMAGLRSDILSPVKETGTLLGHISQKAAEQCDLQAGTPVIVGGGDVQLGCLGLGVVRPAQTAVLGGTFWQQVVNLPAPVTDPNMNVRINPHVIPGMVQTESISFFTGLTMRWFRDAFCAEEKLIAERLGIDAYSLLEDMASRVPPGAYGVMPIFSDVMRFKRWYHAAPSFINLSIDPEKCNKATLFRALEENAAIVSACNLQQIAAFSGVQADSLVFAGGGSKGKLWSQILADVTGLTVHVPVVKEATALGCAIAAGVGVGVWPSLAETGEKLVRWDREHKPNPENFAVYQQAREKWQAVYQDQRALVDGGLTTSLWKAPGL
Where a name gives a salt, the structure may show the parent alone.
Recorded endpoint: inhibition at 50 µM (%)

>>> value_observed("COc1ccc2c(c1)OC/C(=C\\c1ccc(OC)c(O)c1)C2=O")
2
>>> value_observed("CN(C)CCC(c1ccc(Br)cc1)c1ccccn1 (stereo not drawn) [BROMPHENIRAMINE MALEATE]")
1
>>> value_observed("Nc1nc2c(ncn2COCCO)c(=O)[nH]1")
8
>>> value_observed("CCCCCCc1ccc(O)cc1O")
0
>>> value_observed("CC(C)/N=c1\\cc2n(-c3ccc(Cl)cc3)c3ccccc3nc-2cc1Nc1ccc(Cl)cc1")
0
>>> value_observed("CC(C)CCC[C@@H](C)[C@H]1CC[C@H]2[C@@H]3CC=C4C[C@@H](O)CC[C@]4(C)[C@H]3CC[C@]12C")
0
>>> value_observed("NCCCCN=C(N)N [AGMATINE SULFATE]")
0
>>> value_observed("Nc1nc(F)nc2c1ncn2[C@@H]1O[C@H](COP(=O)(O)O)[C@@H](O)[C@@H]1O [FLUDARABINE PHOSPHATE]")
0
>>> value_observed("Nc1ccc(O)c(C(=O)O)c1")
105
>>> value_observed("C[C@]12CC[C@@H]3c4ccc(O)cc4CC[C@H]3[C@@H]1CC[C@@H]2OC(=O)CCC1CCCC1 [ESTRADIOL CYPIONATE]")
0
>>> value_observed("CCn1cc(C(=O)O)c(=O)c2cc(F)c(N3CCNC(C)C3)c(F)c21 (stereo not drawn) [LOMEFLOXACIN HYDROCHLORIDE]")
0
>>> value_observed("NS(=O)(=O)c1cc2c(cc1Cl)N=CNS2(=O)=O [CHLOROTHIAZIDE]")
0
>>> value_observed("CC1=C(CC(=O)O)c2cc(F)ccc2/C1=C\\c1ccc([S+](C)[O-])cc1 (stereo not drawn)")
21
>>> value_observed("CC(C)=CCc1c2c(c3occ(-c4ccc(O)c(O)c4)c(=O)c3c1O)C=CC(C)(C)O2")
2
>>> value_observed("CC[N+](C)(C)c1cccc(O)c1 [EDROPHONIUM CHLORIDE]")
0
>>> value_observed("CCCCC1=NC2(CCCC2)C(=O)N1Cc1ccc(-c2ccccc2-c2nnn[nH]2)cc1")
10
>>> value_observed("CC[C@H](c1ccc(O)cc1)[C@@H](CC)c1ccc(O)cc1")
3
>>> value_observed("CC1(C)O[C@@H]2C[C@H]3[C@@H]4CCC5=CC(=O)CC[C@]5(C)[C@@]4(F)[C@@H](O)C[C@]3(C)[C@]2(C(=O)CCl)O1 [HALCINONIDE]")
0
>>> value_observed("N=C(N)NC(=O)c1nc(Cl)c(N)nc1N [AMILORIDE HYDROCHLORIDE]")
1
>>> value_observed("CCCCCC(=O)Cc1cc(O)cc(O)c1C(=O)Oc1cc(CC(=O)CCCCC)c(C(=O)O)c(OC)c1 [[…]]")
0
>>> value_observed("CN(C)CCCN1c2ccccc2Sc2ccc(C(F)(F)F)cc21 [TRIFLUPROMAZINE HYDROCHLORIDE]")
122
>>> value_observed("CCOC(=O)CCC(=O)O[C@H]1[C@H](O[C@@H]2[C@@H](C)[C@H](O[C@H]3C[C@@](C)(OC)[C@@H](O)[C@H](C)O3)[C@@H](C)C(=O)O[C@H](CC)[C@@](C)(O)[C@H](O)[C@@H](C)C(=O)[C@H](C)C[C@@]2(C)O)O[C@H](C)C[C@@H]1N(C)C [ERYTHROMYCIN ETHYLSUCCINATE]")
1
>>> value_observed("COC(=O)C[C@H]1C2(C)CC34OC5(C)O[C@@]6([C@H](OC)C(OC(=O)C(C)C)[C@]7(C)C(/C(=C(/OC)C(C)C)C(=O)O[C@H]7c7ccoc7)[C@@]6(O5)[C@H](OC)[C@@]3(OC)C2OC(C)=O)[C@]14C (stereo partly drawn)")
1
>>> value_observed("CC[C@H]1[C@@H]2C[C@H]3[C@@H]4N(C)c5ccccc5[C@]45C[C@@H]([C@H]2[C@H]5O)N3[C@@H]1O")
0
>>> value_observed("NCC(O)c1ccc(O)cc1 (stereo not drawn) [OCTOPAMINE HYDROCHLORIDE]")
2
>>> value_observed("c1ccc(CN(CC2=NCCN2)c2ccccc2)cc1 [ANTAZOLINE PHOSPHATE]")
1
>>> value_observed("O=C(c1ccccc1)c1ccc2n1CCC2C(=O)O (stereo not drawn)")
0

* * *

biological target: LsrK (Salmonella typhimurium, UniProt Q8ZKQ6); experiment: biochemical; assay type: biochemical, S. typhimurium
Counter-ions that a name gives are not always drawn.
Recorded endpoint: inhibition at 50 µM

>>> value_observed("CC(=O)O[C@H]1C[C@@H]2CC[C@@H]3[C@H](CC[C@@]4(C)[C@H]3C[C@H]([N+]3(C)CCCCC3)[C@@H]4OC(C)=O)[C@@]2(C)C[C@@H]1N1CCCCC1 [VECURONIUM BROMIDE]")
"1%"
>>> value_observed("CCC1(CC)C(=O)NC(=O)NC1=O [BARBITAL]")
"1%"
>>> value_observed("CCN(CCCc1ccccc1)CCCc1ccccc1 [ALVERINE CITRATE]")
"1%"

* * *

target: LsrK (Salmonella typhimurium, UniProt Q8ZKQ6); assay: biochemical; format: biochemical, S. typhimurium
Structures can show the parent of a compound that is named as a salt.
Recorded endpoint: inhibition at 50 µM (%)

>>> value_observed("CN(C)c1ccc(C(=C2C=CC(=[N+](C)C)C=C2)c2ccc(N(C)C)cc2)cc1 [GENTIAN VIOLET]")
11
>>> value_observed("CCCCCCCCCCCCCCCC(=O)OC[C@H](O)[C@H]1OC(=O)C(O)=C1O [ASCORBYL PALMITATE]")
28
>>> value_observed("N[C@@H](Cc1ccc(O)c(O)c1)C(=O)O [LEVODOPA]")
77
>>> value_observed("O=[N+]([O-])c1cccc2cn[nH]c12 [7-NITROINDAZOLE]")
1
>>> value_observed("C[C@@H]1CC[C@@]2(NC1)O[C@H]1C[C@H]3[C@@H]4CC=C5C[C@@H](O)CC[C@]5(C)[C@H]4CC[C@]3(C)[C@H]1[C@@H]2C [SOLASODINE]")
1
>>> value_observed("N#C/C(=C\\c1ccc(O)cc1)C(=O)O [alpha-CYANO-4-HYDROXYCINNAMIC ACID]")
1
>>> value_observed("O=C1C=CC(=O)c2c(O)cccc21 [JUGLONE]")
88
>>> value_observed("COc1ccc(C(=O)/C=C/c2ccccc2)cc1 [4'-METHOXYCHALCONE]")
12
>>> value_observed("CN(C/C=C/C#CC(C)(C)C)Cc1cccc2ccccc12 [TERBINAFINE HYDROCHLORIDE]")
1
>>> value_observed("Cc1cc(=O)oc2cc(O)c(O)cc12 [4-METHYLESCULETIN]")
2
>>> value_observed("CCc1cn([C@H]2C[C@H](O)[C@@H](CO)O2)c(=O)[nH]c1=O [EDOXUDINE]")
0
>>> value_observed("CC(CCc1ccc(O)cc1)NCCc1ccc(O)c(O)c1 (stereo not drawn) [DOBUTAMINE HYDROCHLORIDE]")
3
>>> value_observed("C[C@@H]1O[C@@H](O[C@H]2[C@H](Oc3cc(O)c4c(=O)cc(-c5ccc(O)cc5)oc4c3)O[C@H](CO)[C@@H](O)[C@@H]2O)[C@H](O)[C@H](O)[C@H]1O [RHOIFOLIN]")
2
>>> value_observed("COc1ccc2c(c1)CC[C@@H]1[C@@H]2CC[C@]2(C)[C@@H](O)CC[C@@H]12 [ESTRADIOL METHYL ETHER]")
3
>>> value_observed("CC(C)=CCCC1(C)C=Cc2c(O)c3c(c(CC=C(C)C)c2O1)OC12C(=CCCC1C(C)(C)O[C@@]2(C/C=C(\\C)C(=O)O)C(=O)O)C3=O (stereo partly drawn) [[…]]")
75
>>> value_observed("C#C[C@]1(O)CC[C@H]2[C@@H]3CCC4=C(CCC(=O)C4)[C@H]3CC[C@@]21C [NORETHYNODREL]")
1
>>> value_observed("CC(=O)N(c1onc(C)c1C)S(=O)(=O)c1ccc(N)cc1 [SULFISOXAZOLE ACETYL]")
4
>>> value_observed("CC(=O)N[C@@H](Cc1c[nH]c2ccccc12)C(=O)O [ACETYLTRYPTOPHAN]")
6
>>> value_observed("Cn1nnnc1SCC1=C(C(=O)O)N2C(=O)[C@@H](NC(=O)[C@H](O)c3ccccc3)[C@H]2SC1 [CEFAMANDOLE SODIUM]")
15
>>> value_observed("CO/N=C(\\C(=O)N[C@@H]1C(=O)N2C(C(=O)O)=C(COC(N)=O)CS[C@H]12)c1ccco1 [CEFUROXIME SODIUM]")
3
>>> value_observed("O=c1[nH]cc(F)c(=O)[nH]1 [FLUOROURACIL]")
0
>>> value_observed("C=C[C@@]1(C)CC(=O)[C@]2(O)[C@@]3(C)[C@@H](O)CCC(C)(C)[C@@H]3[C@H](O)[C@H](OC(C)=O)[C@@]2(C)O1 [COLFORSIN]")
1
>>> value_observed("CC(=O)O[C@H]1C(=O)[C@@]2(C)[C@H]([C@H](OC(=O)c3ccccc3)[C@]3(O)C[C@H](O)C(C)=C1C3(C)C)[C@]1(OC(C)=O)CO[C@@H]1C[C@@H]2O [BACCATIN III]")
9
>>> value_observed("CCCCC1C(=O)N(c2ccccc2)N(c2ccc(O)cc2)C1=O (stereo not drawn) [OXYPHENBUTAZONE]")
93
